System: OVCAR-3
Experiment: Growth inhibition of human OVCAR-3 cells assessed as cell growth at 10 uM incubated for 48 hrs by sulforhodamine B assay relative to control
Format: functional
Settings: read-out: Activity
The reader will find reported growth at 10 µM values listed item by item below.
Provide only the numeric value, understood in %.

Recall the recorded growth at 10 µM for "Cc1cccc(NC(=O)c2sc3nc4c(cc3c2N)C(=O)CCC4)c1" with OVCAR-3 and state it. -22

Next compound: "COc1ccc(S(=O)(=O)n2ccc(-c3ccc4c(c3)CCC(C)(C)O4)n2)cc1OC" 70.9

And what about the compound "COc1ccc(S(=O)(=O)n2ccc(-c3ccc(OC(C)C)cc3)n2)cc1" ? 90.4

Also check "Nc1c(C(=O)N(c2ccccc2)c2ccccc2)sc2nc3c(cc12)C(=O)CCC3" 107

The measurements presented in this section are drawn from ChEMBL document CHEMBL4715736.
